Value source: PubChem BioAssay

Target: NADPH oxidase 5 (Homo sapiens)
Assay: NOX5-dependent H2O2 signal modulators, primary screen, NOX inhibitor project, cell-based, HEK293-NOX5, Amplex Red fluorescence (AID 1161)
Details: HEK293-NOX5, ionomycin, 45 min, higher = more signal
Returns the class for an entry based on its z-score. Class ranges: low range (below -0.2), mid range (-0.2 to below 0.6), high range (0.6 or more)

Consider the worked cases shown below.
[[record]]
smiles_representation = "Cc1nc2cc(Br)ccc2c(=O)o1"
cat = "mid range"

[[record]]
smiles_representation = "COc1cc(COC(C)=O)ccc1OC(C)=O"
cat = "mid range"

[[record]]
smiles_representation = "COc1ccc(C(=O)Nc2ccc(CN3C(=O)[C@]4(O[C@H](CCO)[C@@H]([Si](C)(C)c5ccc(OC)cc5)[C@@H]4C)c4ccccc43)cc2)cc1"
cat = "low range"

[[record]]
smiles_representation = "COC(=O)[C@@]1(Cc2ccc(F)cc2)[C@H]2c3cc(C(=O)N(C)C)n(Cc4ccc(Cl)c(C(F)(F)F)c4)c3C[C@H]2CN1C(=O)c1ccccc1"
cat = "high range"

[[record]]
smiles_representation = "CCC[C@@H]1C[C@@]1(CCC)[C@@H](NS(=O)(=O)c1cccc2cccnc12)c1ccc(Cl)cc1"
cat = "mid range"


Prompt: Field: class (z-score) — entry: Cc1ccc(S[C@]2(C(=O)NCCCN(C)C)CC(=O)N(Cc3cc(C(F)(F)F)cc(C(F)(F)F)c3)[C@@H]2c2ccc(CO)cc2)cc1
Completion: high range

Prompt: Next: C=CCNC(=O)[C@@H]1[C@H]2C(=O)O[C@H](c3ccccc3)[C@H](c3ccccc3)N2[C@H](c2ccc(O)cc2)[C@@]12C(=O)N(C(=O)OCCOC)c1ccc(C#CCNC(N)=O)cc12
Completion: mid range

* * *

Biological target: Carbonic anhydrase 2 (Homo sapiens)
Assay: CAII small-molecule binders, profiling panel, biochemical, small-molecule microarray, Alexa647-labelled CAII (AID 1122)
Conditions: CAII-A647 binding fluorescence, higher = more signal
In this section we review reported composite z-score values for a set of compounds.
Field format: numeric only.

[[record]]
compound = "COCCOC(=O)N1C(=O)[C@@]2(c3cc(C#CCC(C(=O)OC)C(=O)OC)ccc31)[C@H](c1ccccc1OCCO)N1[C@H](c3ccccc3)[C@H](c3ccccc3)OC(=O)[C@H]1[C@@H]2C(=O)N1CCN(c2ncccn2)CC1"
experimental_target = "Carbonic anhydrase 2 (Homo sapiens)"
result = 0.499

[[record]]
compound = "CCCCCN1CC=CC23O[C@@H]4/C=C\\CCC(C)OC(=O)C4[C@H]2C(=O)N(C(C)CO)[C@@H]3C1=O (stereo partly specified)"
experimental_target = "Carbonic anhydrase 2 (Homo sapiens)"
result = 0.536

[[record]]
compound = "COc1ccc(C(=O)Nc2ccc(CN3C(=O)[C@]4(O[C@H](CCO)[C@@H]([Si](C)(C)c5ccc(OC)cc5)[C@@H]4C)c4ccccc43)cc2)cc1"
experimental_target = "Carbonic anhydrase 2 (Homo sapiens)"
result = 0.283

[[record]]
compound = "C=C(COC)C(=O)CC[C@@H](OC(C)=O)c1ccc(CO)o1"
experimental_target = "Carbonic anhydrase 2 (Homo sapiens)"
result = 0.662

[[record]]
compound = "COc1ccc(C#Cc2ccc3c(c2)[C@]2(C(=O)N3)[C@H](c3ccccc3OCCO)N3[C@H](c4ccccc4)[C@H](c4ccccc4)OC(=O)[C@H]3[C@@H]2C(=O)Nc2nc3ccccc3s2)cc1"
experimental_target = "Carbonic anhydrase 2 (Homo sapiens)"
result = 0.327


Continue with the next compound.
Prompt: Notebook entry, Carbonic anhydrase 2 (Homo sapiens) assay: composite z-score of CC1(C)C2C=C(C(O)C3C=CC4C(=O)NC(=O)C4N3Nc3ccc(Cl)cc3Cl)C[C@@H]1C2 (stereo partly specified) = ?
Completion: 0.423

* * *

Experiment: S. cerevisiae growth modulation with rapamycin, primary screen, strain BY4716, OD600, 96 h (AID 1091); note: test concentration not given here
Settings: higher = more signal, called active from +8 up or from −8 down
Activity calls are given as the source filed them.
In this section we review reported z-score values for a set of molecules.

Check out these entries, answers already filled in.
[[record]]
smiles_representation = "COc1cc2c(cc1OC)CN(C(=O)[C@@H]1[C@H]3C(=O)O[C@H](c4ccccc4)[C@H](c4ccccc4)N3[C@H](c3ccccc3OCCO)[C@@]13C(=O)Nc1ccc(C#CCCO)cc13)CC2"
observation_type = "z-score"
result = "2.22 (inactive)"

[[record]]
smiles_representation = "C=CC[C@@]12N=C(c3ccc(OCCCO)cc3)O[C@@H]1c1ccccc1N(C)C2=O"
observation_type = "z-score"
result = "0.432 (inactive)"

[[record]]
smiles_representation = "CCCC[C@@H]1C[C@H]1[C@@H](NC(=O)c1ccco1)c1ccccc1C(F)(F)F"
observation_type = "z-score"
result = "-0.0491 (inactive)"


Continue with the next molecule.
Prompt: Look at this molecule and give its reported z-score. COC(=O)[C@@]1(Cc2ccccc2)[C@H]2c3cc(C(=O)N(C)C)n(Cc4ccsc4Br)c3C[C@H]2CN1C(=O)c1ccccc1
Completion: 2.66 (inactive)

* * *

Target: Left-right determination factor 2 (Homo sapiens)
Assay: LEFTY2 binders on small-molecule microarrays, primary screen, biochemical, small-molecule microarray, 635 nm fluorescence scan (AID 1110)
Conditions: LEFTY2 binding, higher = more signal
In this section we review reported composite z-score values for a set of compounds.
Field format: numeric only.

[[record]]
smiles_representation = "O=C1O[C@@H](c2ccccc2)[C@@H](c2ccccc2)N2[C@@H](c3ccccc3OCCO)[C@]3(C(=O)Nc4ccccc43)[C@@H](C(=O)Nc3nc4ccccc4s3)[C@H]12"
experimental_target = "Left-right determination factor 2 (Homo sapiens)"
observation_type = "composite z-score"
result = 0.108


Prompt: Look at this compound and give its reported composite z-score. O=C1C[C@@](C(=O)NCCN2CCOCC2)(c2ccc([N+](=O)[O-])cc2)[C@@H](c2ccc(CO)cc2I)N1CC12CC3CC(CC(C3)C1)C2
Completion: 0.462

Prompt: Next: COC(=O)C(CC#Cc1ccc2c(c1)[C@]1(C(=O)N2)[C@H](C(=O)Nc2nc3ccccc3s2)[C@H]2C(=O)O[C@H](c3ccccc3)[C@H](c3ccccc3)N2[C@@H]1c1ccc(O)cc1)C(=O)OC
Completion: 0.829

* * *

Assay: A549 lung cancer cell viability effects, profiling panel, resazurin fluorescence, 24 h, PK04 Diversity Set (AID 1171); note: test concentration not given here
Settings: higher = more signal, called active from +8 up or from −8 down
observation.type: z-score
Field format: numeric only.

[[record]]
compound = "[N-]=[N+]=Nc1ccccc1[C@@H]1OC(c2ccc(OCCCO)cc2)=N[C@]1(Cc1ccccc1)C(=O)N1CCOCC1"
result = -1.56


Prompt: Look at this compound and give its reported z-score. Cc1ccc(S[C@]2(C(=O)NCCCN(C)C)CC(=O)N(Cc3ccccc3C(F)(F)F)[C@@H]2c2ccc(CO)cc2)cc1
Completion: -0.515

Prompt: Next: CC(C)C[C@@H]1NC(=O)[C@@H]2C[C@H](C(=O)O)[C@H](c3cccc(OCCO)c3)N2C1=O
Completion: 0.0499

Prompt: Next: NCCCCCNC(=O)[C@@H]1C[C@@H]2C(=O)N[C@@H](Cc3ccccc3)C(=O)N2[C@@H]1c1ccc(O)cc1
Completion: -0.0029

Prompt: Next: COC(=O)[C@@]1(Cc2ccc(F)cc2)[C@H]2c3cc(C(=O)N(C)C)n(Cc4ccc(Cl)c(C(F)(F)F)c4)c3C[C@H]2CN1C(=O)c1ccccc1
Completion: -1.27

* * *

Assay: small-molecule binders of probe aNOTCH2, primary screen, biochemical, small-molecule microarray, 635/667 nm fluorescence (AID 1121);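 note: score merges feature fluorescence read at 667 nm with its signal to noise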
Conditions: higher = more signal
Record Yes whenever composite z-score is at -0.1 or higher; record No when lower.

[[record]]
compound = "COC(=O)[C@@]1(Cc2ccc(OC)cc2)[C@H]2c3cc(C(=O)N(C)C)n(CCc4ccccn4)c3C[C@H]2CN1C(=O)c1ccccc1"
cat = "Yes"

[[record]]
compound = "OCCCC1=CC(c2cccs2)N(Cc2cc3c(cc2Br)OCO3)CC1 (stereo not given)"
cat = "No"

[[record]]
compound = "C=CCOC(=O)[C@@H]1[C@H]2C(=O)O[C@H](c3ccccc3)[C@H](c3ccccc3)N2[C@H](c2ccc(OCCOC(=O)[C@H]3C[C@H]4C(=O)N5CCC[C@H]5C(=O)N4[C@H]3c3ccc(O)cc3)cc2)[C@@]12C(=O)Nc1ccc(I)cc12"
cat = "Yes"

[[record]]
compound = "O=C1C[C@]2(c3ccc([N+](=O)[O-])cc3)C(=O)N(CC(F)(F)F)c3cc(CO)ccc3[C@H]2N1C1CCCCC1"
cat = "No"


Prompt: hey, is composite z-score for this one >= -0.1? COC(=O)[C@@]1(Cc2ccccc2)[C@H]2c3cc(C(=O)N(C)C)n(Cc4ccsc4Br)c3C[C@H]2CN1C(=O)c1ccccc1
Completion: Yes
